Recorded pIC50 by entry
# Experimental System: Protein farnesyltransferase (Homo sapiens, UniProt P49354+P49356)
# Experimental Details: Inhibition of Farnesyltransferase
# pIC50: negative log10 of molar concentration; output just the value

Compound: C=C(C(=O)N1C[C@H]2[C@@]3(c4ccc(C)cc4)CC[C@H](c4ccccc43)[C@@]2(C(=O)O)C1)c1ccccc1OC (racemic)
Experimental System: Protein farnesyltransferase (Homo sapiens, UniProt P49354+P49356)
pIC50: 8.10

Moving on to another compound below.
Which pIC50 value is on record for COc1ccccc1CC(=O)N1C[C@H]2[C@@]3(c4ccccc4)CC[C@H](c4ccccc43)[C@@]2(C(=O)O)C1 (racemic) ?
6.70
